- Tested on: COLO 205 colon
- assay.explanation: NCI tumour cell line growth inhibition, 48 h
observation.type: TGI

> print(dat)
                                   compound  assayed.target  observation.type    result
1  CCCCCCCCCCCC[C@@H](O)[C@H]1CCC([C@H](O)CCCCC(=O)CCCCCCCC2=C[C@H](C)OC2=O)O1 (stereo not given in full)  COLO 205 colon               TGI   > 30 µM
2          CCOC(=O)NC(OC)(C(F)(F)F)C(F)(F)F  COLO 205 colon               TGI  > 100 µM
3  CCOC(=O)c1cc2c(cc1Cl)SC(=Nc1ccccc1)N(S(=O)(=O)c1ccc(Cl)cc1)S2(=O)=O  COLO 205 colon               TGI  > 100 µM
4           COc1ccc(Cc2coc3ccccc3c2=O)cc1OC  COLO 205 colon               TGI  > 100 µM
5  O=C(c1ccc(Cl)cc1)N(C(=S)N1CCN(c2ccccn2)CC1)C1CCCCC1  COLO 205 colon               TGI  > 100 µM

====

Listing: TGI of selected compounds
- Test system: IGROV1 ovarian
- assay.explanation: NCI tumour cell line growth inhibition, 48 h
observation.type: TGI

> print(dat)
                               query.smiles    result
1  Cc1ccc(-c2nc(N/N=C/c3ccc(O)cc3)c3ccccc3n2)cc1  > 100 µM
2    N#C/C(=C/c1ccc2c(c1)OCO2)C(=O)c1ccccc1  > 100 µM
3  N=c1c2c(=S)n(-c3ccccc3)c(=S)n(-c3ccccc3)c2nc(SCCN2CCCC2)n1-c1ccccc1   3.52 µM

====

- System: HOP-92 NSCLC
- assay.explanation: NCI tumour cell line growth inhibition, 48 h
Listing: TGI of selected molecules
observation.type: TGI (µM)

> print(dat)
                                   molecule  value.modifier  quantitative.result
1  CC1=C(/C=C/C(C)=C/C2CC(N(C)C)=CC(=O)O2)C(C)(C)CCC1 (configuration not stated)               =                 31.1
2  Cc1cccc2nc3ccccc3c(Nc3ccc(NS(C)(=O)=O)cc3)c12               =                 11.1
3  COc1ccc(N=NC(=O)NC(CC(C)C)C(N)=O)cc1 (configuration not stated)               >                 31.6
4  C[C@@H]1C(=O)C[C@H]2C(C)(C)CCC[C@]2(C)[C@@]1(O)CCc1ccoc1               >                  100
5  CC(C)=CCc1[nH]c2ccccc2c1C1=C(O)C(=O)C(c2c(CC=C(C)C)[nH]c3ccccc23)=C(O)C1=O               =                 4.04
6  CCN(CC)CCN1C(=O)c2c(c3c4ccccc4[nH]c3c3ccc4ccccc4c23)C1=O               =                 2.95
7        CC(=O)Nc1c(Nc2ccccc2)[nH]c(C)nc1=S               >                  100

====

Listing: TGI of selected compounds
- System: MCF7 breast
- assay.explanation: NCI tumour cell line growth inhibition, 48 h

compound	TGI
Cc1csc2[n+]1-c1ccccc1N(C(=O)Nc1ccccc1)C(C)C2 (centres undefined)	> 100 µM
COC1=CC(=O)CC(C)C12Oc1c(Cl)c(OC)cc(OC)c1C2=O (centres undefined)	> 100 µM
COc1cc(Nc2ncc(-c3ccccc3)o2)cc(OC)c1	> 25 µM
CC(=O)NC(C)(C)C1CCC(C)=C(c2ccccc2)C1 (centres undefined)	> 100 µM
C=C/C=C/[C@@H](O)CC(=C)C[C@H]1OC2[C@H](C)[C@@H](OC(=O)C[C@H]3C[C@H](OC(C)=O)C[C@@]4(C[C@@](C)(O)C[C@H](CC(=C)[C@@H](C)[C@H](OC(C)=O)[C@H](C)C(=O)C[C@@H]5C[C@H](OC)CC6(C[C@@H](O)C[C@H](/C=C\CCC[C@H]7O[C@](O)(C=C[C@H]7C)[C@H]2O)O6)O5)O4)O3)[C@@H]1O	< 0.0025 µM
Cc1n[nH]c(=O)n1/N=C\c1ccccc1	> 100 µM
OCCN(/N=C\c1ccc2ccccc2c1)C1=NCCN1	> 100 µM
CC(=O)Nc1ccc2[nH]c(C(=O)N3CC(CCl)c4c3cc([N+](=O)[O-])c3ccccc43)cc2c1 (centres undefined)	> 100 µM
CCOCCCn1c2c(c3c(O)cccc31)C(=O)c1ccccc1-2	> 100 µM

====

- Test system: EKVX NSCLC
- assay.explanation: NCI tumour cell line growth inhibition, 48 h
Listing: TGI of selected molecules

molecule	TGI
Cc1nc(C)c(N2CCNCC2)c(=O)[nH]1	> 100 µM
C=C/C=C/[C@@H](O)CC(=C)C[C@H]1OC2[C@H](C)[C@@H](OC(=O)C[C@H]3C[C@H](OC(C)=O)C[C@@]4(C[C@@](C)(O)C[C@H](CC(=C)[C@@H](C)[C@H](OC(C)=O)[C@H](C)C(=O)C[C@@H]5C[C@H](OC)CC6(C[C@@H](O)C[C@H](/C=C\CCC[C@H]7O[C@](O)(C=C[C@H]7C)[C@H]2O)O6)O5)O4)O3)[C@@H]1O	> 25 µM
CC1=C(c2ccccc2)C(O)(c2ccccc2)C(C)C1=O (stereo not drawn)	> 100 µM

====

- System: RXF 393 renal
- assay.explanation: NCI tumour cell line growth inhibition, 48 h; in the data active = GI50 below about 0.43 µM; inactive = the rest
Outcomes: Yes (active), No (inactive)

> print(dat)
                                   compound  group.label
1  CCC(C)[C@H](NC(=O)Nc1cc(C(F)(F)F)cc(C(F)(F)F)c1)C(=O)N[C@@H](Cc1cn(C)cn1)C(=O)OC (stereo not given in full)           No
2  CC1=C(SCCC(=O)OC(C[Se]C2=C(C)C(=O)c3ccccc3C2=O)C(=O)NCCCCCC(=O)OCc2ccccc2)C(=O)c2ccccc2C1=O (stereo not given)           No
3  COc1ccc(CN2c3ccccc3Sc3ccccc32)c(C(F)(F)F)c1          Yes
4  O=C([CH-]C(=O)c1ccccc1)c1ccccc1.[CH-]1CCCCC1.[CH-]1CCCCC1.[CH-]1CCCCC1.[Sn+4]           No
5            CC(C)(C)c1ccc(Oc2ccc(N)cn2)cc1           No

====

- System: CAKI-1 renal
- assay.explanation: NCI tumour cell line growth inhibition, 48 h
Listing: TGI of selected compounds
observation.type: TGI

> print(dat)
                               query.smiles  assayed.target    result
1  O=C(N=c1ccc2nc(=O)[nH]n(O)c-2c1)C(F)(F)F    CAKI-1 renal  > 100 µM
2  Cc1cc(S(=O)(=O)Nc2nnc3cnc4ccccc4n23)c(S)cc1Cl    CAKI-1 renal  > 100 µM
3       COc1cc(Nc2ncc(-c3ccccc3)o2)cc(OC)c1    CAKI-1 renal   > 25 µM

====

- Test system: RPMI-8226 leukemia
- assay.explanation: NCI tumour cell line growth inhibition, 48 h
observation.type: log10 TGI (log10 of the value in µM)

> print(dat)
                                   molecule  quantitative.result
1  CCOC(=O)C(=O)CC1=Nc2ccccc2SC(c2cccc(C)c2)C1 (configuration not stated)                 1.83
2  Cc1cccc(N2C(=O)C3c4[nH]c5ccccc5c4C4CCC(C(C)(C)C)CC4C3C2=O)c1 (configuration not stated)                 1.41
3           CCCCCCCCCCCCCCCCCCn1cc[n+](C)c1                -0.63
4  CC1=C2[C@@H](CC1)[C@]1(C)O[C@@](C(C)C)(C[C@H]1OC(=O)CO)[C@H]2OC(=O)C1CC1c1ccccc1 (some centres not stated)                 1.63
5  COc1ccc(CN2c3ccccc3Sc3ccccc32)c(C(F)(F)F)c1                 1.50
6  COC(=O)C1Cc2c(n(C)c3ccccc23)C(CCC(=O)O)N1Cc1ccccc1 (configuration not stated)                 1.88
7  CCCCCCCCCCCCCCCCOP(=O)(O)OCC(N)C(=O)O (configuration not stated)                 1.68
8  CC(=O)Oc1c(N2CCCCC2)c(C(=O)c2ccccc2)c(O)c2ccn(N(C)C)c12                 1.65
9   COc1ccc2c(c1)[nH]c(=O)c1c3cccc(F)c3cn21                -0.57
